# System: NCI/ADR-RES ovarian
# TEST METHOD NOTES: NCI-60 one-dose screen, 48 h
# CONDITION NOTES: 10 µM unless noted
Compounds without any hit were thinned out: in the full panel of roughly 83,000, 20% have a hit. Calls of active or inactive are those of the source. How the source made its calls: active means growth percent below 10; inactive means the rest.
Assign a class; possible classes are active, inactive

# COMPOUND, CLASS
records = [
    ("Cn1nc(Nc2ccccc2)c(C(=O)NN)c1N", "inactive"),
]

Kindly consider the entry below.
[in] Lab log entry: C/C(=N\NC(=O)CSc1nc2sc3c(c2c(=O)n1-c1ccccc1)CCC(C)C3)c1ccc(Cl)cc1 (stereo not given) — outcome as called in the assay?
[out] inactive

---

# System: BT-549 breast
# TEST METHOD NOTES: NCI-60 one-dose screen, 48 h (100 = growth as untreated, 0 = no growth, -100 = all killed)
# CONDITION NOTES: 10 µM unless noted
The panel holds about 83,000 compounds, 20% with a hit somewhere; the sample as a whole holds those more often.
MEASURED QUANTITY: growth (%)
Answers are plain numbers, in %.

Hi team, please reply with growth for each item in this list.
1. COc1ccc(-c2nc3cc(Cl)c(Cl)cc3n2CC(=O)N=Nc2c(O)[nH]c3ccc(Cl)cc23)cc1
2. Cc1ccc(/C=C/CC(=O)Nc2ccc(C(=O)Nc3ccc(F)cc3N)cc2)cn1
3. COc1cc(/C=N/n2cnc3oc(-c4ccccc4)cc3c2=N)cc(CN2CCOCC2)c1O
4. C=C1C(=O)O[C@@H]2C[C@@H](C)CCC(=O)[C@](C)(OC(C)=O)C[C@H](OC(=O)/C(C)=C\C)[C@@H]12

[out]
1: 25.8; 2: 73; 3: 109; 4: 80.3

---

# Test system: MCF7 breast
# TEST METHOD NOTES: NCI-60 one-dose screen, 48 h (100 = growth as untreated, 0 = no growth, -100 = all killed)
# CONDITION NOTES: 10 µM unless noted
This is part of a sample that, as a whole, favours compounds with a hit. Of some 83,000 tested, about 20% had one in any assay.
MEASURED QUANTITY: growth (%)
Numbers only, in %.

# example entries with known answers
# MOLECULE, UNIT ABBREV, growth
data = [
    ("CN(c1ccc(F)cc1)S(=O)(=O)c1ccc(-c2cnc(C3CC3)o2)cc1", "%", 23.7),
    ("O=C1[C@H]2Cc3c([nH]c4ccccc34)[C@H](c3ccc(Cl)cc3)N2C(=O)CN1C1CCN(Cc2c(Cl)cccc2Cl)CC1", "%", 19.1),
    ("COc1ccc(-c2nn(-c3ccccc3)cc2/C=C/C(=O)c2ccc(NC(=O)CCCCCCC(=O)NO)cc2)cc1", "%", 94.2),
    ("C#C[C@]1(O)CC[C@H]2[C@@H]3CC=C4c5sc(Nc6cccc(C)n6)nc5CC[C@]4(C)[C@H]3CC[C@@]21C", "%", -41.5),
    ("O=C(CCCCCCN1CC(=O)N2[C@@H](c3cc(F)cc(F)c3)c3[nH]c4ccccc4c3C[C@H]2C1=O)NO", "%", 52),
]

For the 4 molecules below, give their growth values.
1. COc1cc(CNC(=O)Cc2ccccc2[N+](=O)[O-])ccc1OCC(=O)NO
2. CC1CCc2c(sc3nc(SCC(=O)N/N=C/c4ccc(Cl)cc4)n(-c4ccccc4)c(=O)c23)C1 (stereo unspecified)
3. COc1ccc([C@H]2[C@H](O)C(=O)N2c2cc(OC)c(OC)c(OC)c2)cc1
4. NS(=O)(=O)c1ccc(Nc2nc(N/N=C/c3ccc(F)cc3)nc(Nc3ccccc3)n2)cc1

[out]
1: 95.1; 2: 90.5; 3: 12.4; 4: 28.6

Dear reader, for each entry below, please note its growth.
1. CCC(CC)n1c(=O)c(SC2=NC3C(NN2)N(CC)C(=O)N3CC)c(C(=O)O)c2ccccc21 (stereo unspecified)
2. CCNC(=O)Oc1ccc(/C(=C(/C)c2ccc(Cl)cc2)c2ccc(OCCN3CCCC3)cc2)cc1

[out]
1: 17.4; 2: 25.3
